Measured values drawn from ChEMBL document CHEMBL4020826 for this set.

experiment: Volume of distribution at steady state in Sprague-Dawley rat at 1 mg/kg, iv measured over 8 hrs by LC-MS/MS analysis; type: ADME, organism-based; settings: in vivo, read-out: Vdss
property: Vd (L/kg)
Write the number in L/kg without appending the unit.

Fill in: Vd of COc1cccc(C(=O)N[C@H]2C[C@@](N)(C(=O)O)[C@@H]3[C@@H](C(=O)O)[C@@H]32)c1 is ___
1.17

###

target: Metabotropic glutamate receptor 5 (Homo sapiens); experiment: Antagonist activity at recombinant human mGlu5 receptor expressed in hamster AV12 cells co-expressing rat EAAT1/Galpha15 assessed as inhibition of glutamate induced increase in Ca2+ flux after 2.5 mins by Fluo-3 AM dye-based FLIPR assay
Sequence (P41594 whole entry): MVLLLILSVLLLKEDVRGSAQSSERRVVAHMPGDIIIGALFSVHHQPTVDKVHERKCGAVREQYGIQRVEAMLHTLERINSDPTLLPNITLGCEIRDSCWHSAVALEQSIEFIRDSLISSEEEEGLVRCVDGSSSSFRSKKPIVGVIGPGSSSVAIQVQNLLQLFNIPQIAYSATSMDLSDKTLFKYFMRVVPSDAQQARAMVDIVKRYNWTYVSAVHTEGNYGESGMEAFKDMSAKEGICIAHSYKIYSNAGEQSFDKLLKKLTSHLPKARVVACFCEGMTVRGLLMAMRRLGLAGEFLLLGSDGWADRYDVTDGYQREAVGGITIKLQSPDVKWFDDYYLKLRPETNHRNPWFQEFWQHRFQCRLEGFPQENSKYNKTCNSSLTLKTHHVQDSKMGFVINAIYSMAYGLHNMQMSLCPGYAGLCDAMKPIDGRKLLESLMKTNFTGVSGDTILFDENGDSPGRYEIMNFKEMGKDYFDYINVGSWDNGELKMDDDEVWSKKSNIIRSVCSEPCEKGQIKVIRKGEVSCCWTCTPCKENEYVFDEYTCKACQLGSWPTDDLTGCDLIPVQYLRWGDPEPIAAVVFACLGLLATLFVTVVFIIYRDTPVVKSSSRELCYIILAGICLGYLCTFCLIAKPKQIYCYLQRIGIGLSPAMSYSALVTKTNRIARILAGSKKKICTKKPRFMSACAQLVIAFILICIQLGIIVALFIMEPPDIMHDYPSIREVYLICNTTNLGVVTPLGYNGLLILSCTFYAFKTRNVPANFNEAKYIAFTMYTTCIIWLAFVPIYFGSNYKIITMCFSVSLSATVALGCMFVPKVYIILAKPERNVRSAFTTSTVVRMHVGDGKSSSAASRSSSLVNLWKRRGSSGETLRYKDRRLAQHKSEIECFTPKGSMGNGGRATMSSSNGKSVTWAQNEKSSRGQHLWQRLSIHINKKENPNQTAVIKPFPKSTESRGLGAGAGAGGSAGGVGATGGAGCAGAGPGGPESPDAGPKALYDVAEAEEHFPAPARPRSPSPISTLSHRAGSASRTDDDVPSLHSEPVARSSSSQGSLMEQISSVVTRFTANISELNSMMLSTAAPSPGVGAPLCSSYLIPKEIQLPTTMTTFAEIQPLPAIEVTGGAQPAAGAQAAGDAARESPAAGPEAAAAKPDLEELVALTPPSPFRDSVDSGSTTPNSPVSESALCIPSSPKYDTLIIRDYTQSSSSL
pIC50: −log10 of the molar value.
property: pIC50

Fill in: pIC50 of COc1cccc(C(=O)N[C@H]2C[C@@](N)(C(=O)O)[C@@H]3[C@@H](C(=O)O)[C@@H]32)c1 is ___
< 4.90

###

molecular target: Metabotropic glutamate receptor 2 (Homo sapiens, UniProt Q14416); experiment: Displacement of [3H]-LY459477 from recombinant human mGlu2 receptor expressed in HEK cell membranes after 90 mins by liquid scintillation counting
Sequence (Q14416 whole entry): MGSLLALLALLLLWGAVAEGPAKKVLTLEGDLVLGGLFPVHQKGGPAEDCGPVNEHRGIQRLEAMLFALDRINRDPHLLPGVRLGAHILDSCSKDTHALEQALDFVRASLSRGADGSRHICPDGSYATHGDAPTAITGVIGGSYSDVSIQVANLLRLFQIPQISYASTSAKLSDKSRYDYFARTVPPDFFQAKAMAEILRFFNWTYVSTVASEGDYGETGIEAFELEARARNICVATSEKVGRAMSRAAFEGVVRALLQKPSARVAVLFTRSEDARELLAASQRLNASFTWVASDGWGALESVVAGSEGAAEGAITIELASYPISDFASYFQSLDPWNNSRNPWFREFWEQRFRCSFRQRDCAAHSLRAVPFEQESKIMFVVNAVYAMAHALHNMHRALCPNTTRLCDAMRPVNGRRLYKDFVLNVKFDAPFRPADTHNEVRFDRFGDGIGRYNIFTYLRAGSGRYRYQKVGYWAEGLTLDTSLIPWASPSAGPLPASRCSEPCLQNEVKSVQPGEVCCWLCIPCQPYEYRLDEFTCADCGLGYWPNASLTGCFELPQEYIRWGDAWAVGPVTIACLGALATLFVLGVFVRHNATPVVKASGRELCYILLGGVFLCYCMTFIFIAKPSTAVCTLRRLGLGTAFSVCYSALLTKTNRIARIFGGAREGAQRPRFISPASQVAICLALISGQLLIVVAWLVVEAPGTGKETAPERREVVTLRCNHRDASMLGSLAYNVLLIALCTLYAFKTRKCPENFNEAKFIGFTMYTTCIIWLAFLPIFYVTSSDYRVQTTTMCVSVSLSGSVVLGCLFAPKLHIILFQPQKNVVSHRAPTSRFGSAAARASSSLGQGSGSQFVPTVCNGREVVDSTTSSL
For each of the molecules below, state its log10 of Ki.
Note the log scale: values are log10 of Ki expressed in nM.

Fill in: log10 of Ki of COc1ccc(C(=O)N[C@H]2C[C@@](N)(C(=O)O)[C@@H]3[C@@H](C(=O)O)[C@@H]32)cc1 is ___
2.27

Follow-up entry: N[C@H]1C[C@@](N)(C(=O)O)[C@@H]2[C@@H](C(=O)O)[C@@H]21
3.64

Follow-up entry: N[C@@]1(C(=O)O)C[C@H](NC(=O)c2ccc(F)cc2)[C@H]2[C@H](C(=O)O)[C@H]21
2.52

Follow-up entry: N[C@@]1(C(=O)O)C[C@H](NC(=O)c2ccccc2O)[C@H]2[C@H](C(=O)O)[C@H]21
1.76

Follow-up entry: COc1cccc(C(=O)N[C@H]2C[C@@](N)(C(=O)O)[C@@H]3[C@@H](C(=O)O)[C@@H]32)c1
2.61

Follow-up entry: N[C@@]1(C(=O)O)C[C@H](NCc2ccccc2)[C@H]2[C@H](C(=O)O)[C@H]21
4.05

Follow-up entry: N[C@@]1(C(=O)O)C[C@H](NC(=O)c2ccccc2)[C@H]2[C@H](C(=O)O)[C@H]21
2.47

Follow-up entry: N[C@@]1(C(=O)O)C[C@H](NC(=O)c2cccc(O)c2)[C@H]2[C@H](C(=O)O)[C@H]21
1.50

###

target: UniProtKB P41594; assay: Agonist activity at recombinant human mGlu5 receptor expressed in hamster AV12 cells co-expressing rat EAAT1/Galpha15 assessed as induction of increase in Ca2+ flux after 2.5 mins by Fluo-3 AM dye-based FLIPR assay
property: EC50

Fill in: EC50 of COc1cccc(C(=O)N[C@H]2C[C@@](N)(C(=O)O)[C@@H]3[C@@H](C(=O)O)[C@@H]32)c1 is ___
> 25 µM

###

test: Plasma concentration in Sprague-Dawley rat at 0.5 mg/kg/day, sc administered via infusion measured after 12 hrs post dose by LC-MS/MS analysis; format: ADME, organism-based
property: concentration at 12 h (nM)
Write the number in nM without appending the unit.

Fill in: concentration at 12 h of COc1cccc(C(=O)N[C@H]2C[C@@](N)(C(=O)O)[C@@H]3[C@@H](C(=O)O)[C@@H]32)c1 is ___
143

###

test: Plasma concentration in Sprague-Dawley rat at 10 mg/kg, sc administered as single dose measured after 1 hr post dose by LC-MS/MS analysis; format: ADME, organism-based
property: concentration at 1 h (µM)
Write the number in µM without appending the unit.

Fill in: concentration at 1 h of COc1cccc(C(=O)N[C@H]2C[C@@](N)(C(=O)O)[C@@H]3[C@@H](C(=O)O)[C@@H]32)c1 is ___
25.9

###

biological target: Metabotropic glutamate receptor 4 (Homo sapiens); assay: Agonist activity at recombinant human mGlu4 receptor expressed in hamster AV12 cells co-expressing rat EAAT1/Galpha15 assessed as induction of increase in Ca2+ flux after 2.5 mins by Fluo-3 AM dye-based FLIPR assay
Sequence (Q14833 whole entry): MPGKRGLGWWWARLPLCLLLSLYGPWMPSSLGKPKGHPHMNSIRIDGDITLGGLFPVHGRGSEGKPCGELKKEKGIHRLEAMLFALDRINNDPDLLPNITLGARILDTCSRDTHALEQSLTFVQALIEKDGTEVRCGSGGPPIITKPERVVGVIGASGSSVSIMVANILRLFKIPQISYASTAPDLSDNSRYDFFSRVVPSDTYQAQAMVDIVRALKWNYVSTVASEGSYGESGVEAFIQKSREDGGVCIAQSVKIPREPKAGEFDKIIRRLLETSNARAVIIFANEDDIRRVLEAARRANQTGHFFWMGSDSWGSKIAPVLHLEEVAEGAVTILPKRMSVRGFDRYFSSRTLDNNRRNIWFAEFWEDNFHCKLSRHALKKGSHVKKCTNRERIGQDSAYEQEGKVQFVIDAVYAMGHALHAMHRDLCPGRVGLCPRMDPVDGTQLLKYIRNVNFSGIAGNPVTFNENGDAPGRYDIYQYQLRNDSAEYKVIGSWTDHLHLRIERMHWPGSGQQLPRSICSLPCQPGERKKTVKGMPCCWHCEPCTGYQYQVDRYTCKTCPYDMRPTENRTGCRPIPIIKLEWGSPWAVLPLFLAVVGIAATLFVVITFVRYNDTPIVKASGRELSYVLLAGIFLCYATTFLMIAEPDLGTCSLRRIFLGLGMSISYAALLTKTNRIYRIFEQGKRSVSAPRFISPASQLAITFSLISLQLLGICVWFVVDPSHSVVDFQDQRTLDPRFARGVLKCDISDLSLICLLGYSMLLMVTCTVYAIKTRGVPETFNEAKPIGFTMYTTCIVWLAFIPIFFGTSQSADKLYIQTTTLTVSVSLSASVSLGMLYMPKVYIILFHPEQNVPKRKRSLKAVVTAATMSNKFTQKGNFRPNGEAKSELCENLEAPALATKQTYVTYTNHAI
property: EC50 (µM)
Write the number in µM without appending the unit.

Fill in: EC50 of COc1cccc(C(=O)N[C@H]2C[C@@](N)(C(=O)O)[C@@H]3[C@@H](C(=O)O)[C@@H]32)c1 is ___
11.8

###

target: CYP2C9 (Homo sapiens, UniProt P11712); test: Inhibition of human CYP2C9 at 10 uM; type: ADME
Sequence (P11712 whole entry): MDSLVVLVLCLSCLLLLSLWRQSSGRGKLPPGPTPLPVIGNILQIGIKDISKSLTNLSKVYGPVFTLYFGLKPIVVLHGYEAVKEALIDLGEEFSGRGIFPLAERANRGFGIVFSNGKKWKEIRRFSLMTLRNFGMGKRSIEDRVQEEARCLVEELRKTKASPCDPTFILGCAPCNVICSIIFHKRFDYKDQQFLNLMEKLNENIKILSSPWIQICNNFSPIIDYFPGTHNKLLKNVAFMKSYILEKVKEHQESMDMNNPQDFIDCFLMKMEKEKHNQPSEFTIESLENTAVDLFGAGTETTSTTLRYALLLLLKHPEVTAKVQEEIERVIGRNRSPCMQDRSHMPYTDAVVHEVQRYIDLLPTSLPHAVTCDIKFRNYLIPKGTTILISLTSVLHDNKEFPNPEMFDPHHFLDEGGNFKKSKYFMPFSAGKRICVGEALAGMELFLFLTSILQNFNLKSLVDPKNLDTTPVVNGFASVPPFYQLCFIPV
property: inhibition at 10 µM (%)
Write the number in % without appending the unit.

Fill in: inhibition at 10 µM of COc1cccc(C(=O)N[C@H]2C[C@@](N)(C(=O)O)[C@@H]3[C@@H](C(=O)O)[C@@H]32)c1 is ___
3.5

###

assay: Half life in Sprague-Dawley rat at 3 mg/kg, sc measured over 8 hrs by LC-MS/MS analysis; type: ADME, organism-based; settings: in vivo
property: half-life (h)
Write the number in h without appending the unit.

Fill in: half-life of COc1cccc(C(=O)N[C@H]2C[C@@](N)(C(=O)O)[C@@H]3[C@@H](C(=O)O)[C@@H]32)c1 is ___
2.9

###

target: Metabotropic glutamate receptor 8 (Homo sapiens, UniProt O00222); experiment: Agonist activity at recombinant human mGlu8 receptor expressed in hamster AV12 cells co-expressing rat EAAT1/Galpha15 assessed as induction of increase in Ca2+ flux after 2.5 mins by Fluo-3 AM dye-based FLIPR assay; assay type: functional, cell-based
Sequence (O00222 whole entry): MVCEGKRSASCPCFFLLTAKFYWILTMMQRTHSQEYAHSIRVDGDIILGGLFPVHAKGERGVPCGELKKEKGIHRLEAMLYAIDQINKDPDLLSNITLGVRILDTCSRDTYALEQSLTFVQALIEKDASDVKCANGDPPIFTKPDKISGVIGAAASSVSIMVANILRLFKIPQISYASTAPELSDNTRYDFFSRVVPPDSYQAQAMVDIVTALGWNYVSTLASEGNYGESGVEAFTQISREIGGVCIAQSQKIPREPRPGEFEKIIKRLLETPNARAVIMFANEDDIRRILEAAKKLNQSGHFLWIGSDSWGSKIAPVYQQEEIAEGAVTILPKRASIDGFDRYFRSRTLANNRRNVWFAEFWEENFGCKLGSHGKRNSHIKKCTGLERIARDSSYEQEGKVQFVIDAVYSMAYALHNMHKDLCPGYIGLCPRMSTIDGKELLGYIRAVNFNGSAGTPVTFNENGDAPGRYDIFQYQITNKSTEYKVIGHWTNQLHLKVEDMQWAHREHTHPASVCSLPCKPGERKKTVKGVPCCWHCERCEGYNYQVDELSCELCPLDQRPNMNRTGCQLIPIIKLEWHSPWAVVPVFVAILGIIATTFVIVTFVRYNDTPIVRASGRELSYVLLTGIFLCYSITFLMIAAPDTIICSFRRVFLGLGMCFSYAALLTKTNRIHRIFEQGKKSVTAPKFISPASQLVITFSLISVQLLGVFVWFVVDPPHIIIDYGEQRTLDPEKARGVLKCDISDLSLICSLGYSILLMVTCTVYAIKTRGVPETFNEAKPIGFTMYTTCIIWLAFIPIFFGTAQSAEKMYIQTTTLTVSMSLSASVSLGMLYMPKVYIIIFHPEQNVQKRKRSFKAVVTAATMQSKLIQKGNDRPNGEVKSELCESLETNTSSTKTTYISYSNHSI
property: EC50

Checklist item: EC50 tested on Metabotropic glutamate receptor 8 (Homo sapiens, UniProt O00222), entry COc1cccc(C(=O)N[C@H]2C[C@@](N)(C(=O)O)[C@@H]3[C@@H](C(=O)O)[C@@H]32)c1 , value?
> 25 µM

###

assay: Cmax in Sprague-Dawley rat at 1 mg/kg, iv measured over 8 hrs by LC-MS/MS analysis; assay type: ADME, organism-based; design: dose 1 mg/kg, route intravenous; settings: in vivo
property: Cmax (µM)
Write the number in µM without appending the unit.

Fill in: Cmax of COc1cccc(C(=O)N[C@H]2C[C@@](N)(C(=O)O)[C@@H]3[C@@H](C(=O)O)[C@@H]32)c1 is ___
6.39

###

experiment: Drug level in Sprague-Dawley rat CSF at 0.3 mg/kg, sc administered as single dose measured after 1 hr post dose by LC-MS/MS analysis; format: ADME, organism-based, Cerebrospinal fluid; conditions: read-out: Drug uptake
property: concentration at 1 h (nM)
Write the number in nM without appending the unit.

Fill in: concentration at 1 h of COc1cccc(C(=O)N[C@H]2C[C@@](N)(C(=O)O)[C@@H]3[C@@H](C(=O)O)[C@@H]32)c1 is ___
6.91

###

assay: Drug level in Sprague-Dawley rat CSF at 1 mg/kg, sc administered as single dose measured after 1 hr post dose by LC-MS/MS analysis; type: ADME, organism-based, Cerebrospinal fluid; details: read-out: Drug uptake
property: concentration at 1 h

Fill in: concentration at 1 h of COc1cccc(C(=O)N[C@H]2C[C@@](N)(C(=O)O)[C@@H]3[C@@H](C(=O)O)[C@@H]32)c1 is ___
12.5 to 22.5 nM

###

assay: Plasma concentration in Sprague-Dawley rat at 1.5 mg/kg/day, sc administered via infusion measured after 72 hrs post dose by LC-MS/MS analysis; type: ADME, organism-based
property: concentration at 72 h (nM)
Write the number in nM without appending the unit.

Fill in: concentration at 72 h of COc1cccc(C(=O)N[C@H]2C[C@@](N)(C(=O)O)[C@@H]3[C@@H](C(=O)O)[C@@H]32)c1 is ___
361

###

experiment: Plasma concentration in Sprague-Dawley rat at 0.5 mg/kg/day, sc administered via infusion measured after 24 hrs post dose by LC-MS/MS analysis; assay type: ADME, organism-based
property: concentration at 24 h (nM)
Write the number in nM without appending the unit.

Fill in: concentration at 24 h of COc1cccc(C(=O)N[C@H]2C[C@@](N)(C(=O)O)[C@@H]3[C@@H](C(=O)O)[C@@H]32)c1 is ___
124

###

assay: Plasma concentration in Sprague-Dawley rat at 0.5 mg/kg/day, sc administered via infusion measured after 72 hrs post dose by LC-MS/MS analysis; assay type: ADME, organism-based
property: concentration at 72 h (nM)
Write the number in nM without appending the unit.

Fill in: concentration at 72 h of COc1cccc(C(=O)N[C@H]2C[C@@](N)(C(=O)O)[C@@H]3[C@@H](C(=O)O)[C@@H]32)c1 is ___
91.2

###

For each of the compounds below, state its pKi.
target: Metabotropic glutamate receptor 2 (Homo sapiens, UniProt Q14416); assay: Displacement of [3H]-LY459477 from recombinant human mGlu2 receptor expressed in HEK cell membranes after 90 mins by liquid scintillation counting
Keep it numeric: pKi is minus log10 of the concentration in mol/L.

Fill in: pKi of N[C@@]1(C(=O)O)C[C@H](NC(=O)C2CCCCC2)[C@H]2[C@H](C(=O)O)[C@H]21 is ___
5.82

Follow-up entry: N[C@@]1(C(=O)O)C[C@H](NC(=O)CCc2ccccc2)[C@H]2[C@H](C(=O)O)[C@H]21
6.23

Follow-up entry: N[C@@]1(C(=O)O)C[C@H](NC(=O)c2ccc(Cl)cc2)[C@H]2[C@H](C(=O)O)[C@H]21
6.86

Follow-up entry: COc1ccccc1C(=O)N[C@H]1C[C@@](N)(C(=O)O)[C@@H]2[C@@H](C(=O)O)[C@@H]21
6.82
